Data credit: ChEMBL document CHEMBL5537137

# System: Human coronavirus OC43
# ASSAY_TEXT: microbe, parasite or virus in culture
# RUN_CONDITIONS: Betacoronavirus 1, VR-1558, NCI-H460, 72 h
# Description: Antiviral activity against HCoV-OC43 VR-1558 infected in human NCI-H460 cells assessed as inhibition of viral growth incubated for 72 hrs by CCK-8 assay
MEASUREMENT_TYPE: pEC50
In simple prose, pEC50 is minus the logarithm base ten of a concentration in moles per litre.

# example entries with known answers
{"columns": ["MOLECULE", "MEASUREMENT_TYPE", "ENDPOINT_VALUE"],
 "data": [
  ["CN1CCN(Cc2ccc(NC(=O)c3ccc(OCCCCl)c(S(N)(=O)=O)c3)cc2C(F)(F)F)CC1", "pEC50", 5.39],
  ["CC1CN(Cc2ccc(NC(=O)c3ccc(OCCCCl)c([N+](=O)[O-])c3)cc2C(F)(F)F)CC(C)O1 (stereo not drawn)", "pEC50", 5.60],
  ["CN(C)C1CN(Cc2ccc(NC(=O)c3ccc(OCC4CC4)c([N+](=O)[O-])c3)cc2C(F)(F)F)C1", "pEC50", 6.00],
  ["CN1CCN(Cc2ccc(NC(=O)c3ccc(OO)c([N+](=O)[O-])c3)cc2C(F)(F)F)CC1", "pEC50", 4.58],
  ["CN(C)C1CC(Oc2ccc(NC(=O)c3ccc(OCCC(F)(F)F)c([N+](=O)[O-])c3)cc2C(F)(F)F)C1 (stereo not drawn)", "pEC50", 5.70]
]}

get_value(item= `CN1CCN(Cc2ccc(NC(=O)c3ccc(OCCCCl)c([N+](=O)[O-])c3)cc2C#N)CC1` , readout=pEC50) returns 4.92

// pEC50 value for `CC(C)Oc1ccc(C(=O)Nc2ccc(CN3CCN(C)CC3)c(C(F)(F)F)c2)cc1[N+](=O)[O-]` : 5.45

---

# MEASURED_ON: UniProt:P0DTD1
MEASUREMENT_TYPE: Kd
The number alone won't do; follow it with the unit.

Recorded Kd for `CCOc1ccc(C(=O)Nc2ccc(CN3CC(N(C)C)C3)c(C(F)(F)F)c2)cc1[N+](=O)[O-]` on UniProt:P0DTD1 was 17.1 µM

---

# ASSAY_TEXT: Cytotoxicity against human NCI-H460 cells incubated for 72 hrs by CCK-8 assay
MEASUREMENT_TYPE: CC50 at 72 h

{"columns": ["MOLECULE", "CC50 at 72 h"],
 "data": [
  ["CN1CCN(Cc2ccc(NC(=O)c3ccc(OCCF)c([N+](=O)[O-])c3)cc2C(F)(F)F)CC1", "24.5 µM"]
]}

Record summary for `CC(C)C(=O)OC[C@H]1O[C@@H](n2ccc(NO)nc2=O)[C@H](O)[C@@H]1O` : reported CC50 at 72 h = 18.3 µM

# CC50 at 72 h (molecule: CN(C)C1CC(Oc2ccc(NC(=O)c3ccc(OCC(F)F)c([N+](=O)[O-])c3)cc2C(F)(F)F)C1 (stereo not drawn) ) is 34.3 µM

So, `CN(C)C1CN(Cc2ccc(NC(=O)c3ccc(OCCCl)c([N+](=O)[O-])c3)cc2C(F)(F)F)C1` ? Its CC50 at 72 h was 19.2 µM

CC50 at 72 h recorded for this molecule, `C=CCOc1ccc(C(=O)Nc2ccc(CN3CC(N(C)C)C3)c(C(F)(F)F)c2)cc1[N+](=O)[O-]` , is 28.1 µM

Recorded result, `CN1CCN(Cc2ccc(NC(=O)c3ccc(OCCCCl)c([N+](=O)[O-])c3)cc2C(F)(F)F)CC1` , CC50 at 72 h: 15 µM

Sure, the documented CC50 at 72 h for CN(C)C1CC(Oc2ccc(NC(=O)c3ccc(OCCF)c([N+](=O)[O-])c3)cc2C(F)(F)F)C1 (stereo not drawn) is 27.1 µM

GET /value?item= CN(C)C1CC(Oc2ccc(NC(=O)c3ccc(OCC45CC6CC(CC(C6)C4)C5)c([N+](=O)[O-])c3)cc2C(F)(F)F)C1 (stereo not drawn) &field=CC50 at 72 h returns 2.51 µM

Lab note: measured CC50 at 72 h of CCOc1ccc(C(=O)Nc2ccc(OC3CC(N(C)C)C3)c(C(F)(F)F)c2)cc1[N+](=O)[O-] (stereo not drawn) was 55.4 µM

For reference, reported CC50 at 72 h for `CN(C)C1CCN(Cc2ccc(NC(=O)c3ccc(OCC4CC4)c([N+](=O)[O-])c3)cc2C(F)(F)F)CC1` stands at 14.2 µM

Form: molecule = CC1CC(C)CN(CCCNC(=O)C2CN(Cc3ccc(NC(=O)c4ccc(OCCCCl)c([N+](=O)[O-])c4)cc3C(F)(F)F)C2)C1 (stereo not drawn) ; CC50 at 72 h = 14.9 µM

Quick note, CC50 at 72 h for `CN(C)C1CN(Cc2ccc(NC(=O)c3ccc(OCC4CC4)c([N+](=O)[O-])c3)cc2C(F)(F)F)C1` landed at 14.6 µM

Form field CC50 at 72 h, entry `CCC(=O)Nc1cc(C(=O)Nc2ccc(CN3CC(N(C)C)C3)c(C(F)(F)F)c2)ccc1OCCCCl` : 96.2 µM

# molecule `COc1ccc(C(=O)Nc2ccc(CN3CCN(C)CC3)c(C(F)(F)F)c2)cc1[N+](=O)[O-]` ; its CC50 at 72 h = 30.4 µM

For this molecule ( CC1CN(Cc2ccc(NC(=O)c3ccc(OCCCCl)c([N+](=O)[O-])c3)cc2C(F)(F)F)CC(C)O1 (stereo not drawn) ), measured CC50 at 72 h is 4.69 µM

// CC50 at 72 h value for `CN1CCN(Cc2ccc(NC(=O)c3ccc(OO)c([N+](=O)[O-])c3)cc2C(F)(F)F)CC1` : > 200 µM

---

# ASSAY_TEXT: in vitro
# RUN_CONDITIONS: human, NCI-H460 cells
# Description: Selectivity index, ratio of CC50 for cytotoxicity against human NCI-H460 cells to EC50 for antiviral activity against HCoV-OC43 VR-1558 infected in human NCI-H460 cells
MEASUREMENT_TYPE: selectivity ratio

Examples with answers:
{"columns": ["MOLECULE_SMILES", "selectivity ratio"],
 "data": [
  ["CN1CCN(Cc2ccc(NC(=O)c3ccc(OO)c([N+](=O)[O-])c3)cc2C(F)(F)F)CC1", "> 8"],
  ["CN1CCN(Cc2ccc(NC(=O)c3ccc(OCCCCl)c([N+](=O)[O-])c3)cn2)CC1", 2.3],
  ["CN(C)C1CN(Cc2ccc(NC(=O)c3ccc(OCC4CC4)c([N+](=O)[O-])c3)cc2C(F)(F)F)C1", 14.5]
]}

# ---- query compound ----
# selectivity ratio (compound: `CN1CCN(Cc2ccc(NC(=O)c3ccc(OCCCCl)c(S(N)(=O)=O)c3)cc2C(F)(F)F)CC1` ) is 9.8

---

# Tested on: Human coronavirus OC43
# ASSAY_TEXT: microbe, parasite or virus in culture
# RUN_CONDITIONS: Betacoronavirus 1, VR-1558, NCI-H460, 72 h
Quick reference: log10 EC50 of the listed items.
All values: base-10 log of EC50 in µM.

Recorded results for 6 compounds are shown here.
{"columns": ["COMPOUND", "log10 EC50"],
 "data": [
  ["CN1CCN(Cc2ccc(NC(=O)c3ccc(OCCF)c([N+](=O)[O-])c3)cc2C(F)(F)F)CC1", 0.42],
  ["COc1ccc(C(=O)Nc2ccc(CN3CCN(C)CC3)c(C(F)(F)F)c2)cc1S(N)(=O)=O", 1.30],
  ["CN(C)C1CC(Oc2ccc(NC(=O)c3ccc(OCC4CC4)c([N+](=O)[O-])c3)cc2C(F)(F)F)C1 (configuration not stated)", 0.09],
  ["CC(C)C(=O)OC[C@H]1O[C@@H](n2ccc(NO)nc2=O)[C@H](O)[C@@H]1O", -0.74],
  ["CCC(=O)Nc1cc(C(=O)Nc2ccc(CN3CCN(C)CC3)nc2)ccc1OCCCCl", 1.62],
  ["CCC(=O)Nc1cc(C(=O)Nc2ccc(CN3CCN(C)CC3)c(C(F)(F)F)c2)ccc1OCCCCl", 0.76]
]}

Value of log10 EC50 reported for the compound CN(C)C1CC(Oc2ccc(NC(=O)c3ccc(OCc4cc(C(F)(F)F)cc(C(F)(F)F)c4)c([N+](=O)[O-])c3)cc2C(F)(F)F)C1 (configuration not stated) is 1.07

Looking up `CN(C)C1CCN(Cc2ccc(NC(=O)c3ccc(OCCCCl)c([N+](=O)[O-])c3)cc2C(F)(F)F)CC1` , I found its log10 EC50 recorded as 0.59

For `CN1CCN(Cc2ccc(NC(=O)c3ccc(OCCCCl)c(C(F)(F)F)c3)cc2C(F)(F)F)CC1` the compound record lists log10 EC50 as 0.47

Notebook: `Cc1ccc(NC(=O)c2ccc(OCCCCl)c([N+](=O)[O-])c2)cc1C(F)(F)F` , log10 EC50 read as 0.58

---

# ASSAY_TEXT: Cytotoxicity against human NCI-H460 cells incubated for 72 hrs by CCK-8 assay
Threshold 10 µM: CC50 at 72 h strictly smaller gives True, otherwise False.

Past entries and their recorded results:
{"columns": ["MOLECULE", "CLASS_NAME"],
 "data": [
  ["CN(C)C1CC(Oc2ccc(NC(=O)c3ccc(OCC4CC4)c([N+](=O)[O-])c3)cc2C(F)(F)F)C1 (stereo not given)", "True"],
  ["CN1CCN(Cc2ccc(NC(=O)c3ccc(OCCCl)c([N+](=O)[O-])c3)cc2C(F)(F)F)CC1", "False"]
]}

Quick check: does CN(C)C1CC(Oc2ccc(NC(=O)c3ccc(O)c([N+](=O)[O-])c3)cc2C(F)(F)F)C1 (stereo not given) have CC50 at 72 h under 10 µM?
False

For this molecule, is CC50 at 72 h lower than 10 µM? `COc1ccc(C(=O)Nc2ccc(CN3CCN(C)CC3)c(C(F)(F)F)c2)cc1S(N)(=O)=O`
False

Given `Cc1ccc(NC(=O)c2ccc(OCCCCl)c([N+](=O)[O-])c2)cc1C(F)(F)F` , is recorded CC50 at 72 h strictly lower than 10 µM?
False
